- Test system: HCT-116
- PROTOCOL NOTES: NCI tumour cell line growth inhibition, 48 h
Active and inactive are the calls of the source. Cut-off read from the data, not from the text of the source: active = GI50 up to about 1.1 µM and inactive = higher.
Provide the recorded GI50 for the entries that follow.

Lookup result for Cc1ccc(NC(=S)C#N)cc1Cl ; measured GI50: 36.6 µM (inactive)

Lookup result for CCC(=O)C(C(=O)CC)c1c(OC(=O)c2ccccc2)ccc(O)c1C(=O)OC ; measured GI50: > 100 µM (inactive)

Lookup result for CO[C@H]1O[C@@H]2OC3(C)CCC4[C@H](C)CCC([C@H]1C)[C@]42OO3 (stereo partly specified) ; measured GI50: > 100 µM (inactive)

Lookup result for CCN(C(=S)N[C@@H](Cc1ccccc1)C(=O)N[C@@H](CC(C)C)C(=O)OC)c1ccccc1 ; measured GI50: 75 µM (inactive)

Lookup result for CCOP(=O)(OCC)C1CCCOC1=O (stereo unspecified) ; measured GI50: > 100 µM (inactive)

Lookup result for COc1cccc(NC(=O)c2c(SC)c(C#N)c(=O)n(N)c2N)c1 ; measured GI50: 35.2 µM (inactive)

Lookup result for Nc1nc(N)c(C2=CCN(Cc3ccccc3)CC2)c(=O)[nH]1 ; measured GI50: > 100 µM (inactive)

Lookup result for C[C@@H]1CC[C@]2(C(=O)O)CC[C@]3(C)C(=CC[C@@H]4[C@@]5(C)CC[C@H](O)C(C)(C)[C@@H]5CC[C@]43C)[C@@H]2[C@]1(C)O ; measured GI50: 12.2 µM (inactive)

Lookup result for CC(C)C(=O)C(C)(C)CCc1ccccn1 ; measured GI50: > 100 µM (inactive)

Lookup result for Cn1c(O)c(C(=O)Nc2cccs2)c(=O)[nH]c1=S ; measured GI50: 13.4 µM (inactive)

Lookup result for CC(C)NC(=O)OCc1c(COC(=O)NC(C)C)n(C)c2c1ccc1cc(Cl)c(Cl)cc12 ; measured GI50: 11.7 µM (inactive)

Lookup result for CC(=O)c1ccc(N2CCN(C3=CC(=O)c4c(O)ccc(O)c4C3=O)CC2)cc1 ; measured GI50: 7.57 µM (inactive)

Lookup result for N#Cc1c(SCc2ccccc2)nc(-c2ccccc2)[nH]c1=S ; measured GI50: 23.7 µM (inactive)

Lookup result for NNc1nnc(CCCCCCCCc2nnc(NN)n2N)n1N ; measured GI50: > 100 µM (inactive)

Lookup result for CC(=O)NNC1=NN(C(C)=O)C2(S1)C(=O)Nc1ccccc12 (stereo unspecified) ; measured GI50: > 100 µM (inactive)

Lookup result for CCC[C@H](C)C[C@H](C)C[C@H](C)/C=C(\C)[C@@H](O)[C@@H](C)C(=O)CC ; measured GI50: 17.5 µM (inactive)

Lookup result for Cc1c(C(=O)C/C(=N/NC(=O)C[n+]2ccccc2)C(=O)Nc2ccccc2)[n+]([O-])c2ccccc2[n+]1[O-] ; measured GI50: > 100 µM (inactive)

Lookup result for COC(=O)c1c(O)ccc2c1c1c(n2Cc2ccc(OC)cc2)C(=O)c2ccccc2C1 ; measured GI50: 60.4 µM (inactive)

Lookup result for Cc1cc2cc3ccccc3cc2c(=O)[nH]1 ; measured GI50: > 10 µM (inactive)

Lookup result for CN1C(=O)C(CC=O)(C(C)(C)C)c2ccccc21 (stereo unspecified) ; measured GI50: 76.4 µM (inactive)

Lookup result for CC1OC(OCC2COC(O)(Oc3c(-c4ccc(O)c(O)c4)oc4cc(O)cc(O)c4c3=O)C(O)C2O)C(O)C(O)C1O (stereo unspecified) ; measured GI50: > 100 µM (inactive)
